# Species on record: Rattus norvegicus
# protocol_notes: Inhibition of calcium activation was assessed against calcium-induced constriction of potassium-depolarized rat aorta (Negative logarithm of the molar concentration)
# Assay type: functional, organism-based
# measurement_setup: read-out: pA2 (converted)
Item-by-item account of Kb
Write the number in nM without appending the unit.

COc1ccc(N2CCN(CCCC(=O)NC3c4ccccc4C=Cc4ccccc43)CC2)cc1OC    5.01
COc1ccc(CCN(C)CCCC(C#N)(c2ccc(OC)c(OC)c2)C(C)C)cc1OC (centres undefined)    6.92
COc1cccc(N2CCN(CCCC(=O)NC3c4ccccc4C=Cc4ccccc43)CC2)c1    5.37
O=C(CCCN1CCN(c2ccc(Cl)cc2)CC1)NC1c2ccccc2CSc2ccccc21 (centres undefined)    2.82

Okay, next one:
stdin: Identify measured Kb corresponding to O=C(CCCN1CCN(c2ccc(F)cc2)CC1)NC1c2ccccc2Sc2ccccc21
stdout: 10.5

====

# Species on record: Rattus norvegicus
# protocol_notes: Inhibitory effect of compound on contraction induced by high potassium in isolated rat aorta
# Assay type: functional
recorded_metric: IC50 (nM)
Write the number in nM without appending the unit.

stdin: Identify measured IC50 corresponding to COC(=O)C1=C(C)NC(C)=C(C(=O)OC)C1c1ccccc1[N+](=O)[O-]
stdout: 2

====

# Organism: Rattus norvegicus
# protocol_notes: Inhibition of calcium activation was assessed against calcium-induced constriction of potassium-depolarized rat aorta (Negative logarithm of the molar concentration)
# Assay type: functional, organism-based
# measurement_setup: read-out: pA2 (converted)
Item-by-item account of log10(Kb)
Answers are given as log10 of Kb in nM.

Take a look at these entries with their results.
O=C(CCCN1CCN(C(=O)Oc2ccccc2)CC1)NC1c2ccccc2CSc2ccccc21 (stereo not given)    1.12
O=C(CCCN1CCN(c2ccc(F)cc2)CC1)NC1c2ccccc2C=Cc2ccccc21.O=C(O)/C=C\C(=O)O    0.02
O=C(CCCN1CCN(c2ccc(F)cc2)CC1)NC1c2ccccc2COc2ccccc21 (stereo not given)    1.52

stdin: Identify measured log10(Kb) corresponding to O=C(CCCN1CCN(c2ccc([N+](=O)[O-])cc2)CC1)NC1c2ccccc2CSc2ccccc21 (stereo not given)
stdout: 0.90

stdin: Identify measured log10(Kb) corresponding to O=C(CCCN1CCN(CC(=O)c2ccccc2)CC1)NC1c2ccccc2CSc2ccccc21 (stereo not given)
stdout: 1.19

stdin: Identify measured log10(Kb) corresponding to O=C(CCCCN1CCN(c2ccc(F)cc2)CC1)NC1c2ccccc2CSc2ccccc21 (stereo not given)
stdout: 0.54

stdin: Identify measured log10(Kb) corresponding to O=C(CCCN1CCN(c2ccccc2F)CC1)NC1c2ccccc2C=Cc2ccccc21
stdout: 0.54

stdin: Identify measured log10(Kb) corresponding to O=C(CCCN1CCN(Cc2ccccc2)CC1)NC1c2ccccc2CSc2ccccc21 (stereo not given)
stdout: 0.46

stdin: Identify measured log10(Kb) corresponding to COc1ccc(N2CCN(CCCC(=O)NC3c4ccccc4CSc4ccccc43)CC2)cc1 (stereo not given)
stdout: 0.53

stdin: Identify measured log10(Kb) corresponding to O=C(CCN1CCN(c2ccc(F)cc2)CC1)NC1c2ccccc2CSc2ccccc21 (stereo not given)
stdout: 0.45

stdin: Identify measured log10(Kb) corresponding to O=C(CCCN1CCN(c2ccc(F)cc2)CC1)NC1c2ccccc2CCc2ccccc21
stdout: 0.97

stdin: Identify measured log10(Kb) corresponding to O=C(CCCN1CCN(c2ccccc2F)CC1)NC1c2ccccc2CSc2ccccc21 (stereo not given)
stdout: 0.51

stdin: Identify measured log10(Kb) corresponding to O=C(CCCN1CCN(c2ccc(F)cc2)CC1)NC1c2ccccc2-c2ccccc21
stdout: 1.84

stdin: Identify measured log10(Kb) corresponding to O=C(CCCN1CCN(CCc2ccccc2)CC1)NC1c2ccccc2C=Cc2ccccc21
stdout: 0.95

stdin: Identify measured log10(Kb) corresponding to O=C(CCCN1CCN(c2ccccc2)CC1)NC1c2ccccc2C=Cc2ccccc21
stdout: 0.57

====

# Organism: Rattus norvegicus
# protocol_notes: Inhibition of calcium activation was assessed against calcium-induced constriction of potassium-depolarized rat aorta (Negative logarithm of the molar concentration)
# Format: functional, organism-based
# measurement_setup: read-out: pA2 (converted)
Item-by-item account of Kb
Write your answer as a measured quantity: the number, then the unit.

Take a look at these entries with their results.
O=C(CCCN1CCN(c2ccc(F)cc2)CC1)NC1c2ccccc2CSc2ccccc21.O=C(O)/C=C\C(=O)O (centres undefined) [MONATEPIL MALEATE]    1.95 nM
O=C(CCCN1CCN(CCCc2ccccc2)CC1)NC1c2ccccc2CSc2ccccc21 (centres undefined)    12.3 nM
O=C(CCCCN1CCN(c2ccc(F)cc2)CC1)NC1c2ccccc2C=Cc2ccccc21    4.47 nM

stdin: Identify measured Kb corresponding to O=C(CCCN1CCN(c2ccccc2)CC1)NC1c2ccccc2CSc2ccccc21 (centres undefined)
stdout: 1.74 nM

stdin: Identify measured Kb corresponding to O=C(CCCN1CCN(C/C=C/c2ccccc2)CC1)NC1c2ccccc2CSc2ccccc21 (centres undefined)
stdout: 7.59 nM

stdin: Identify measured Kb corresponding to O=C(CCCN1CCN(C(=O)c2ccccc2)CC1)NC1c2ccccc2C=Cc2ccccc21
stdout: 20.9 nM

stdin: Identify measured Kb corresponding to Cc1ccc(N2CCN(CCCC(=O)NC3c4ccccc4CSc4ccccc43)CC2)cc1 (centres undefined)
stdout: 3.31 nM

stdin: Identify measured Kb corresponding to O=C(CCCN1CCN(C/C=C/c2ccccc2)CC1)NC1c2ccccc2C=Cc2ccccc21
stdout: 30.9 nM

====

# Species: Rattus norvegicus
# protocol_notes: Inhibition of calcium activation was assessed against calcium-induced constriction of potassium-depolarized rat aorta (Negative logarithm of the molar concentration)
# Assay type: functional, organism-based
# measurement_setup: read-out: pA2 (converted)
recorded_metric: Kb (nM)
Write the number in nM without appending the unit.

Take a look at these entries with their results.
O=C(CCCN1CCN(S(=O)(=O)Oc2ccccc2)CC1)NC1c2ccccc2CSc2ccccc21 (stereo unspecified)    10.5
O=C(CCCN1CCN(C(=O)c2ccccc2)CC1)NC1c2ccccc2CSc2ccccc21 (stereo unspecified)    36.3
O=C(CCCN1CCN(c2ccc(F)cc2)CC1)NC1c2ccccc2Oc2ccccc21    69.2
O=C(CCCN1CCN(Cc2ccccc2)CC1)NC1c2ccccc2C=Cc2ccccc21    6.03
O=C(CCCN1CCN(c2ccc(C(F)(F)F)cc2)CC1)NC1c2ccccc2C=Cc2ccccc21    2.09

Okay, next one:
stdin: Identify measured Kb corresponding to O=C(CCN1CCN(c2ccc(F)cc2)CC1)NC1c2ccccc2C=Cc2ccccc21
stdout: 2.75
